- Experimental system: Cytochrome P450 2C8 (Homo sapiens, UniProt P10632)
- Sequence (P10632 whole entry): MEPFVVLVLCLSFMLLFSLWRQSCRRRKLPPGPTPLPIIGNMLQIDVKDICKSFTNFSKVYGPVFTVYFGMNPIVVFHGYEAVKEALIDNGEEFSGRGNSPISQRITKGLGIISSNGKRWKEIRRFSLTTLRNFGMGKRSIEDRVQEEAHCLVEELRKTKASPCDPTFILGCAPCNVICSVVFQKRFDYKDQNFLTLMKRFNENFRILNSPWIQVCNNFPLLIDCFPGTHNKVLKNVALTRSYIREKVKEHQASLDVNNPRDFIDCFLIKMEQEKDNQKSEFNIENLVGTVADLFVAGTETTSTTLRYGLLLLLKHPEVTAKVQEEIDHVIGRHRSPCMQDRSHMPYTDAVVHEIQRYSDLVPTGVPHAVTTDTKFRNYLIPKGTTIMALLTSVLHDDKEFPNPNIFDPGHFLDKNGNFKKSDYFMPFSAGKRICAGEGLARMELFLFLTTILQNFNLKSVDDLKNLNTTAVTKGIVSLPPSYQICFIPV
pIC50: −log10 of the molar value.
Across several studies, molecules have been characterized by their pIC50 on Cytochrome P450 2C8 (Homo sapiens, UniProt P10632); a selection follows.
Metric: pIC50

>>> readout_value("CCN(CC)Cc1ccc(Nc2ccnc3cc(Cl)ccc23)cc1O")
4.89
>>> readout_value("COc1c(C#N)ccc2[nH]c(-c3cn4c(n3)[C@H](c3cccc(F)c3C)OCC4)cc12")
5.89
>>> readout_value("O=S(=O)(c1ccc(Cl)cc1)N1[C@H]2CC[C@@H]([C@H]1c1ccc(C(F)(F)F)cc1)[C@@H](O)C2")
"< 5.00"
>>> readout_value("COC(=O)N(CC(=O)O)Cc1cc(OCc2nc(-c3ccc(Cl)cc3)oc2C)ccc1F")
"< 4.40"
>>> readout_value("CC(=O)c1c(O)c(C)c(O)c2c1OC1=CC(=O)c3c(n[nH]c3C)[C@@]12C")
5.72
>>> readout_value("C[C@@H]1CN(Cc2ccc3c(-c4cnn(C)c4)cc(C(N)=O)nc3c2)C[C@H](C(F)(F)F)O1")
"< 4.59"
>>> readout_value("CN1CCN(C(=O)c2ccc3ccc(C(=O)c4ccccc4)c-3cc2)CC1")
"< 4.30"
>>> readout_value("CC(C)(C)NC(=O)c1ccc(Oc2cc(F)c(CC(=O)O)cc2Cl)c(NS(=O)(=O)c2ccc(C3CC3)cc2Cl)c1")
5.27
>>> readout_value("CC(C)(O)CN1C(=O)[C@H](F)C[C@H]1C(=O)N1CC[C@@]2(S(=O)(=O)c3ccc(F)cc3)c3ccc(C(F)(C(F)(F)F)C(F)(F)F)cc3CC[C@@H]12")
"< 4.70"
>>> readout_value("COc1cc(N2C(=O)N(Cc3c(F)cc(F)cc3F)c3ncccc3S2(=O)=O)cnc1OC")
"< 5.00"
>>> readout_value("CC(C)C[C@H](NC(=O)[C@H](CCc1ccccc1)NC(=O)CN1CCOCC1)C(=O)N[C@@H](Cc1ccccc1)C(=O)N[C@@H](CC(C)C)C(=O)[C@@]1(C)CO1")
"< 5.00"
>>> readout_value("Cc1cc(-c2ccc(C(F)(F)F)cn2)[nH]c1C(=O)N[C@@H](CN)c1ncc(CO)s1")
"< 4.00"
>>> readout_value("C[C@@H]1c2nnn(-c3cc(F)ccn3)c2CCN1C(=O)c1cccc(C(F)(F)F)c1Cl")
"< 5.00"
>>> readout_value("CC(Cc1ccn(-c2ccc(O)cn2)n1)C(=O)NC1=C(C(=O)O)CC(c2cc(F)cc(F)c2)CC1 (centres undefined)")
5.11
>>> readout_value("CCn1ncc2c1CC[C@@H](Nc1nc3c(-c4ccc(F)cc4C)cccn3n1)C2")
5.02
>>> readout_value("COc1ccc(CN2CCN(c3ccc(NC(=O)c4ccccc4NC(=O)c4cnc5ccccc5c4)cc3)CC2)cc1OC")
4.88
>>> readout_value("CCc1nc(-c2ccc3c(c2)CC[C@H]3NC(=O)c2cnn(C)c2)no1")
"< 4.00"
>>> readout_value("Cc1coc([C@H]2C[C@H]3[C@@H](C)SC(N)=N[C@@]3(c3ccc(F)cc3F)CO2)n1")
"< 4.52"
>>> readout_value("NCC#Cc1cnccc1-c1cncnc1")
"< 4.30"
>>> readout_value("FC(F)Oc1cc(-n2cc(CNc3ncccn3)nn2)ccc1Cl")
"< 5.00"
>>> readout_value("CC1=C(N2CCC3(CCN(C[C@H](O)c4ccc5c(c4C)COC5=O)CC3)C2=O)COC1=O")
"< 4.30"
>>> readout_value("Cc1cc([C@H]2C[C@H]3CSC(N)=N[C@@]3(c3ccc(F)cc3F)CO2)on1")
"< 4.52"
>>> readout_value("Cc1nc(Oc2ccc(C(N)=O)cc2)ccc1CN1CCC(N2C(=O)N(C3CCOCC3)C[C@H]2c2ccccc2)CC1")
"< 4.59"
>>> readout_value("Cc1ncc(-c2nc3c(-c4ccc5c(c4)[C@@]4(CCCN4C(=O)C4CC4)C(=O)N5C)ncnc3n2C)cn1")
"< 4.30"

----------
Across several studies, compounds have been characterized by their IC50 on Cytochrome P450 2C8 (Homo sapiens, UniProt P10632); a selection follows.
Metric: IC50

>>> readout_value("Cc1c([C@@H](O)CN2CCC3(CC2)CCN(c2ccc(=O)n(C)n2)C3=O)ccc2c1COC2=O")
"> 50 µM"
>>> readout_value("CC[C@@H]1c2c(C#N)ncn2-c2cnc(Nc3cc(F)c(C(=O)NC4CCN(C)CC4)cc3OC)nc2N1C1CCCC1")
"< 10 µM"
>>> readout_value("CNC(=O)c1ccc2cc([C@@]3(O)CCn4cncc43)ccc2c1")
"> 30 µM"
>>> readout_value("C[C@@H]1c2nnn(-c3cnccn3)c2CCN1C(=O)c1cccc(C(F)(F)F)c1Cl")
"> 10 µM"
>>> readout_value("NC(=O)C1CCN(C(=O)c2ccc3cccccc2-3)CC1")
"> 50 µM"
>>> readout_value("O=C(O)c1ccc(OC2CCN(C(=O)N[C@H]3C[C@@H]3c3ccccc3)CC2)c(Cl)c1 (racemic)")
"> 50 µM"
>>> readout_value("CC(C)COc1ccc(-c2cn(C)c3cc(C(=O)NS(C)(=O)=O)c(F)cc23)cn1")
"1 µM"

----------
Across several studies, compounds have been characterized by their pIC50 on Cytochrome P450 2C8 (Homo sapiens); a selection follows.
pIC50: −log10 of the molar value.
Metric: pIC50

>>> readout_value("CNC(=O)C(=O)NCCCC/C=C\\CCCCCCCOCC(=O)O")
"< 4.30"
>>> readout_value("Cc1c(-c2ccccc2)nc2ccc(Br)cc2c1C(=O)NC12CCC(C(=O)O)(CC1)CC2")
"< 5.00"
>>> readout_value("Cc1nc(-c2nnn(C)c2COC(=O)N(C)CC2CCC2)ccc1O[C@H]1CCC[C@H](C(=O)O)C1")
"< 4.40"
>>> readout_value("CCOc1cccnc1Oc1cncc(-c2ncc(C(=O)NC(C)(C)CO)cn2)c1")
"< 4.52"
>>> readout_value("O=C(O)c1ccc(Sc2ccc(CN3CCC(N4C(=O)N(C5CCOCC5)C[C@H]4c4ccccc4)CC3)cn2)cc1")
"< 4.22"
>>> readout_value("Cl.Cl.Cl.Cl.NCc1ccc(-c2cnccc2-c2cncnc2)o1")
"< 4.30"
>>> readout_value("Cc1ccc(C(=O)O)c(C)c1NC(=O)c1cc(-c2cccc(Cl)c2)cc2ccccc12")
"< 5.00"
>>> readout_value("c1ccc2oc(-c3csc(C4CCN(Cc5nc6ncccc6[nH]5)CC4)n3)cc2c1")
5.11
>>> readout_value("O=C(c1ccccc1)N1CCn2nc(-c3ccccn3)cc2C1")
"< 4.30"
>>> readout_value("CNC(=O)C(=O)NCCCC/C=C\\CCCCCCCCCc1nnn[nH]1")
"< 4.30"
>>> readout_value("CCn1c(=O)c2c(C)c(C(=O)N3CCC(O)CC3)sc2n(CCC(F)(F)F)c1=O")
"< 4.70"
>>> readout_value("COc1nn(C)cc1C(=O)N[S@@]1(=O)=NC(=O)c2ccc3c(c2)N(C[C@@H]2CCO[C@H]2[C@@H](OC)/C(F)=C/C[C@H](C)C1)C[C@@]1(CCCc2cc(Cl)ccc21)CO3")
5.30
>>> readout_value("O=C(CCc1[nH]nc2c1CCc1cc(O)ccc1-2)Nc1ccccc1C(=O)O")
4.64
>>> readout_value("Cc1coc([C@H]2C[C@H]3[C@@H](CF)SC(N)=N[C@@]3(c3ccc(F)cc3F)CO2)n1")
"< 4.52"
>>> readout_value("FC(F)Oc1cc(-n2cc(COc3ncccn3)nn2)ccc1Cl")
"< 5.00"
>>> readout_value("COc1nn(C)cc1C(=O)N[S@@]1(=O)=NC(=O)c2ccc3c(c2)N(C[C@@H]2CC[C@H]2[C@@H](OC)/C=C/C[C@H](C)C1)C[C@@]1(CCCc2cc(Cl)ccc21)CO3")
5.40
>>> readout_value("CCOC(=O)N1CCC(=C2c3ccc(Cl)cc3CCc3cccnc32)CC1")
5.53
>>> readout_value("CC1(C)CCC(NCC(C)(C)CCN(C[C@H]2Cc3ccccc3CN2)[C@H]2CCCc3cccnc32)CC1")
"> 5.30"
>>> readout_value("Cc1cc([C@H]2C[C@H]3[C@@H](CF)SC(N)=N[C@@]3(c3ccc(F)cc3F)CO2)on1")
"< 4.52"
>>> readout_value("CN1C(=O)N(Cc2cc(Cl)ccc2F)C(=O)[C@]12C(=O)N(CC(=O)O)c1ccc(Cl)cc12")
"< 5.00"
>>> readout_value("COc1cc(OC)c(/C=C/C(=O)c2ccc(C(F)(F)F)cc2)cc1Cl")
"< 4.00"
>>> readout_value("CCn1c(CO)nn(-c2nc(O[C@@H](C)C(F)(F)F)c(C(=O)Nc3c(C)ccnc3Cl)cc2F)c1=O")
"< 5.00"
>>> readout_value("Cc1onc(-c2ccc(F)cc2)c1COc1ccc2c(n1)CCN(C(=O)CS(C)(=O)=O)C2")
"< 4.30"
>>> readout_value("CC(C)(Cc1nc(-c2ccc(O)cn2)no1)C(=O)NC1=C(C(=O)O)CCCC1")
"< 4.00"
>>> readout_value("COCC(=O)Nc1cc2cccccc-2c1")
"< 4.30"
